system: HDQ-P1; experiment: drug sensitivity score (DSS), CellTox Green (DSS (AUC-based score)); higher = stronger drug effect (viability inhibition or cytotoxicity); extreme values may be limits of the assay; settings: incubation time: 72 h
metric_name: drug sensitivity score
Could you respond with only the numeric value?

(Q) Can you look up the measured drug sensitivity score of CCN(CC)CCCC(C)Nc1c2ccc(Cl)cc2nc2ccc(OC)cc12 (stereo unspecified) for me?
(A) 0

(Q) Can you look up the measured drug sensitivity score of `CC[C@H](C)C(=O)O[C@H]1C[C@H](O)C=C2C=C[C@H](C)[C@H](CC[C@@H](O)C[C@@H](O)CC(=O)O)[C@H]21` for me?
(A) 0

(Q) Can you look up the measured drug sensitivity score of `C=CC(=O)N1CCC[C@@H](n2nc(-c3ccc(Oc4ccccc4)cc3)c3c(N)ncnc32)C1` for me?
(A) 0.282

(Q) Can you look up the measured drug sensitivity score of `Nc1nc2[nH]cc(CCc3ccc(C(=O)N[C@@H](CCC(=O)O)C(=O)O)cc3)c2c(=O)[nH]1` for me?
(A) 0

(Q) Can you look up the measured drug sensitivity score of `COc1cc2c(NC3CCN(C(C)C)CC3)nc(C3CCCCC3)nc2cc1OCCCN1CCCC1` for me?
(A) 1.42

(Q) Can you look up the measured drug sensitivity score of `CC(=O)Nc1cccc(-n2c(=O)n(C3CC3)c(=O)c3c(Nc4ccc(I)cc4F)n(C)c(=O)c(C)c32)c1` for me?
(A) 0

* * *

tested on: SK-BR-3; experiment: normalised viability (% of control), CellTiter-Blue; higher = more viable cells (about 100 = DMSO control); settings: 10000 nM; incubation time: 72 h
metric_name: normalised viability (%)
Please reply with the bare figure in % and do not write the unit itself.

(Q) Please state recorded normalised viability (tested on SK-BR-3) of CCCS(=O)(=O)Nc1ccc(F)c(C(=O)c2c[nH]c3ncc(-c4ccc(Cl)cc4)cc23)c1F [Vemurafenib]
(A) 95

(Q) Please state recorded normalised viability (tested on SK-BR-3) of O=C(O)C(=O)O.[NH-][C@@H]1CCCC[C@H]1[NH-].[Pt+2] [Oxaliplatin]
(A) 47.5

(Q) Please state recorded normalised viability (tested on SK-BR-3) of CCN(CC)CCCC(C)Nc1c2ccc(Cl)cc2nc2ccc(OC)cc12 (configuration not stated) [Mepacrine]
(A) 2.49

(Q) Please state recorded normalised viability (tested on SK-BR-3) of NCCCNCCSP(=O)(O)O [Amifostine]
(A) 93.3

(Q) Please state recorded normalised viability (tested on SK-BR-3) of C[C@H]1C[C@@H]2[C@H]([C@@H](O)C[C@@]3(C)[C@H]2CC[C@]3(O)C(=O)CO)[C@@]2(C)C=CC(=O)C=C12 [Methylprednisolone]
(A) 91.4

(Q) Please state recorded normalised viability (tested on SK-BR-3) of COc1cc2nccc(Oc3ccc(NC(=O)Nc4cc(C)on4)c(Cl)c3)c2cc1OC [Tivozanib]
(A) 68.9

(Q) Please state recorded normalised viability (tested on SK-BR-3) of Nc1ccccc1NC(=O)c1ccc(CNC(=O)OCc2cccnc2)cc1 [Entinostat]
(A) 2.8

* * *

tested on: MDA-MB-453; assay: normalised response (% of control), CellTiter-Glo; higher = more viable cells (100 = DMSO, 0 = benzethonium chloride kill control); details: incubation time: 72 h
For each of the molecules below, state its normalised response.
Please reply with the bare figure in % and do not write the unit itself.

(Q) Can you look up the measured normalised response of CCCCC(=O)OCC(=O)[C@]1(O)Cc2c(O)c3c(c(O)c2[C@@H](O[C@H]2C[C@H](NC(=O)C(F)(F)F)[C@H](O)[C@H](C)O2)C1)C(=O)c1c(OC)cccc1C3=O [Valrubicin] (50 nM) for me?
(A) 118

(Q) Can you look up the measured normalised response of O=C(/C=C/c1cccnc1)NCCCCC1CCN(C(=O)c2ccccc2)CC1 [Daporinad] (10 nM) for me?
(A) 21.1

(Q) Can you look up the measured normalised response of Cc1cnc(NC(=O)Nc2cc(Br)c(C)cc2OC[C@@H]2CNCCO2)cn1 [Rabusertib] (10 nM) for me?
(A) 118

(Q) Can you look up the measured normalised response of C=CCc1cccc(/C=N/NC(=O)CN2CCN(Cc3ccccc3)CC2)c1O [PAC-1] (100 nM) for me?
(A) 102

(Q) Can you look up the measured normalised response of O=C(O)C1(C(=O)O)CCC1.[NH2-].[NH2-].[Pt+2] [Carboplatin] (100 nM) for me?
(A) 94.7

(Q) Can you look up the measured normalised response of CCN(CC)CCCC(C)Nc1c2ccc(Cl)cc2nc2ccc(OC)cc12 (configuration not stated) [Mepacrine] (500 nM) for me?
(A) 101

(Q) Can you look up the measured normalised response of C=CC(=O)Nc1cc2c(Nc3ccc(F)c(Cl)c3)ncnc2cc1OCCCN1CCOCC1 [Canertinib] (100 nM) for me?
(A) 91.9

* * *

system: HCC1143; test: normalised response (% of control), CellTiter-Glo; higher = more viable cells (100 = DMSO, 0 = benzethonium chloride kill control); settings: incubation time: 72 h
Response key: yes (1) means normalised response >= 40%; no (0) means normalised response < 40%.

(Q) Has CNC(=O)c1cc(Oc2ccc(NC(=O)Nc3cc(C(C)(C)C)nn3-c3ccc4ncccc4c3)c(F)c2)ccn1 [Rebastinib] (1000 nM) a recorded normalised response greater than or equal to 40%?
(A) yes (1)

(Q) Has COc1cc2c(NC3CCN(C(C)C)CC3)nc(C3CCCCC3)nc2cc1OCCCN1CCCC1 [UNC0638] (10000 nM) a recorded normalised response greater than or equal to 40%?
(A) no (0)

(Q) Has Cc1ccc(-c2cc(C(F)(F)F)nn2-c2ccc(S(N)(=O)=O)cc2)cc1 [Celecoxib] (10000 nM) a recorded normalised response greater than or equal to 40%?
(A) yes (1)

(Q) Has Oc1ncc(N(CCCl)CCCl)c(O)n1 [Uracil mustard] (10000 nM) a recorded normalised response greater than or equal to 40%?
(A) yes (1)

(Q) Has O=C(/C=C/c1cccnc1)NCCCCC1CCN(C(=O)c2ccccc2)CC1 [Daporinad] (1000 nM) a recorded normalised response greater than or equal to 40%?
(A) no (0)

* * *

test system: HCC1599; assay: drug sensitivity score (DSS), CellTiter-Blue viability (DSS (AUC-based score)); higher = stronger viability inhibition; extreme values may be limits of the assay; conditions: incubation time: 72 h
For each of the compounds below, state its drug sensitivity score.

(Q) Can you look up the measured drug sensitivity score of Nc1ccccc1NC(=O)c1ccc(CNC(=O)OCc2cccnc2)cc1 [Entinostat] for me?
(A) 4.98

(Q) Can you look up the measured drug sensitivity score of O=C(O)C(=O)O.[NH-][C@@H]1CCCC[C@H]1[NH-].[Pt+2] [Oxaliplatin] for me?
(A) 2.34

(Q) Can you look up the measured drug sensitivity score of N#Cc1ccc(C(c2ccc(C#N)cc2)n2cncn2)cc1 [Letrozole] for me?
(A) 3.7

(Q) Can you look up the measured drug sensitivity score of COc1cc2c(Oc3ccc4[nH]c(C)cc4c3F)ncnc2cc1OCCCN1CCCC1 [Cediranib] for me?
(A) 0

(Q) Can you look up the measured drug sensitivity score of C[C@H]1C[C@@H]2[C@H]([C@@H](O)C[C@@]3(C)[C@H]2CC[C@]3(O)C(=O)CO)[C@@]2(C)C=CC(=O)C=C12 [Methylprednisolone] for me?
(A) 0

* * *

For each of the compounds below, state its normalised response.
test system: DU-4475; test: normalised response (% of control), CellTiter-Glo; higher = more viable cells (100 = DMSO, 0 = benzethonium chloride kill control); settings: incubation time: 72 h

(Q) Can you look up the measured normalised response of CCCCC(=O)OCC(=O)[C@]1(O)Cc2c(O)c3c(c(O)c2[C@@H](O[C@H]2C[C@H](NC(=O)C(F)(F)F)[C@H](O)[C@H](C)O2)C1)C(=O)c1c(OC)cccc1C3=O [Valrubicin] (0.5 nM) for me?
(A) 99.8%

(Q) Can you look up the measured normalised response of Cc1cnc(NC(=O)Nc2cc(Br)c(C)cc2OC[C@@H]2CNCCO2)cn1 [Rabusertib] (100 nM) for me?
(A) 99.1%

(Q) Can you look up the measured normalised response of CCN(CC)CCCC(C)Nc1c2ccc(Cl)cc2nc2ccc(OC)cc12 (stereo not drawn) [Mepacrine] (5000 nM) for me?
(A) 97.3%

(Q) Can you look up the measured normalised response of CC(=O)Nc1cccc(-n2c(=O)n(C3CC3)c(=O)c3c(Nc4ccc(I)cc4F)n(C)c(=O)c(C)c32)c1 [Trametinib] (25 nM) for me?
(A) 0.42%

(Q) Can you look up the measured normalised response of CC[C@@H]1C(=O)N(C)c2cnc(Nc3ccc(C(=O)NC4CCN(C)CC4)cc3OC)nc2N1C1CCCC1 [BI 2536] (0.1 nM) for me?
(A) 103%

(Q) Can you look up the measured normalised response of O=C(/C=C/c1cccnc1)NCCCCC1CCN(C(=O)c2ccccc2)CC1 [Daporinad] (1 nM) for me?
(A) 105%

(Q) Can you look up the measured normalised response of COc1cc2c(NC3CCN(C(C)C)CC3)nc(C3CCCCC3)nc2cc1OCCCN1CCCC1 [UNC0638] (10 nM) for me?
(A) 90.4%

(Q) Can you look up the measured normalised response of CC[C@@H]1C(=O)N(C)c2cnc(Nc3ccc(C(=O)NC4CCN(C)CC4)cc3OC)nc2N1C1CCCC1 [BI 2536] (1 nM) for me?
(A) 107%

(Q) Can you look up the measured normalised response of Cc1cnc(NC(=O)Nc2cc(Br)c(C)cc2OC[C@@H]2CNCCO2)cn1 [Rabusertib] (1 nM) for me?
(A) 108%

(Q) Can you look up the measured normalised response of CCCS(=O)(=O)Nc1ccc(F)c(C(=O)c2c[nH]c3ncc(-c4ccc(Cl)cc4)cc23)c1F [Vemurafenib] (10 nM) for me?
(A) 93.2%

(Q) Can you look up the measured normalised response of CCCS(=O)(=O)Nc1ccc(F)c(C(=O)c2c[nH]c3ncc(-c4ccc(Cl)cc4)cc23)c1F [Vemurafenib] (1 nM) for me?
(A) 96.7%

(Q) Can you look up the measured normalised response of CC1=C(/C=C/C(C)=C/C=C/C(C)=C/C(=O)O)C(C)(C)CCC1 [Tretinoin] (1 nM) for me?
(A) 101%

(Q) Can you look up the measured normalised response of N#Cc1ccc(C(c2ccc(C#N)cc2)n2cncn2)cc1 [Letrozole] (10 nM) for me?
(A) 98.2%

(Q) Can you look up the measured normalised response of Oc1ncc(N(CCCl)CCCl)c(O)n1 [Uracil mustard] (1000 nM) for me?
(A) 95.4%

(Q) Can you look up the measured normalised response of O=C(/C=C/c1cccnc1)NCCCCC1CCN(C(=O)c2ccccc2)CC1 [Daporinad] (100 nM) for me?
(A) 4.65%

(Q) Can you look up the measured normalised response of CC(=O)Nc1cccc(-n2c(=O)n(C3CC3)c(=O)c3c(Nc4ccc(I)cc4F)n(C)c(=O)c(C)c32)c1 [Trametinib] (0.025 nM) for me?
(A) 99.2%

(Q) Can you look up the measured normalised response of CCc1cncnc1N1CCN(Cc2nc3ccc(C(F)(F)F)cc3[nH]2)CC1 (1 nM) for me?
(A) 103%

(Q) Can you look up the measured normalised response of CCCS(=O)(=O)Nc1ccc(F)c(C(=O)c2c[nH]c3ncc(-c4ccc(Cl)cc4)cc23)c1F [Vemurafenib] (1000 nM) for me?
(A) 35%

(Q) Can you look up the measured normalised response of COc1cc2nccc(Oc3ccc(NC(=O)Nc4cc(C)on4)c(Cl)c3)c2cc1OC [Tivozanib] (10 nM) for me?
(A) 99.1%

(Q) Can you look up the measured normalised response of Nc1ccccc1NC(=O)c1ccc(CNC(=O)OCc2cccnc2)cc1 [Entinostat] (1000 nM) for me?
(A) 102%

(Q) Can you look up the measured normalised response of CC[C@H](C)C(=O)O[C@H]1C[C@H](O)C=C2C=C[C@H](C)[C@H](CC[C@@H](O)C[C@@H](O)CC(=O)O)[C@H]21 [Pravastatin] (10 nM) for me?
(A) 91.5%

(Q) Can you look up the measured normalised response of CNC(=O)c1cc(Oc2ccc(NC(=O)Nc3cc(C(C)(C)C)nn3-c3ccc4ncccc4c3)c(F)c2)ccn1 [Rebastinib] (100 nM) for me?
(A) 101%

(Q) Can you look up the measured normalised response of CCCCC(=O)OCC(=O)[C@]1(O)Cc2c(O)c3c(c(O)c2[C@@H](O[C@H]2C[C@H](NC(=O)C(F)(F)F)[C@H](O)[C@H](C)O2)C1)C(=O)c1c(OC)cccc1C3=O [Valrubicin] (500 nM) for me?
(A) 52.3%

(Q) Can you look up the measured normalised response of CNC(=O)c1cc(Oc2ccc(NC(=O)Nc3cc(C(C)(C)C)nn3-c3ccc4ncccc4c3)c(F)c2)ccn1 [Rebastinib] (0.1 nM) for me?
(A) 101%

(Q) Can you look up the measured normalised response of C=CCc1cccc(/C=N/NC(=O)CN2CCN(Cc3ccccc3)CC2)c1O [PAC-1] (1000 nM) for me?
(A) 102%

(Q) Can you look up the measured normalised response of C[C@H]1C[C@@H]2[C@H]([C@@H](O)C[C@@]3(C)[C@H]2CC[C@]3(O)C(=O)CO)[C@@]2(C)C=CC(=O)C=C12 [Methylprednisolone] (1 nM) for me?
(A) 108%

(Q) Can you look up the measured normalised response of CC1=C(/C=C/C(C)=C/C=C/C(C)=C/C(=O)O)C(C)(C)CCC1 [Tretinoin] (10 nM) for me?
(A) 98.5%

(Q) Can you look up the measured normalised response of CCN(CC)CCCC(C)Nc1c2ccc(Cl)cc2nc2ccc(OC)cc12 (stereo not drawn) [Mepacrine] (5 nM) for me?
(A) 96.2%
